test: physchem; details: DMSO, organic solvent or mixture
quantity: solubility

Reported solubility for C[C@@H]1[C@H](O)[C@@H](C)/C=C/C=C/C=C/C=C/C=C/C=C/C=C/[C@H](O[C@@H]2O[C@H](C)[C@@H](O)[C@H](N)[C@@H]2O)C[C@@H]2O[C@](O)(C[C@@H](O)C[C@@H](O)[C@H](O)CC[C@@H](O)C[C@@H](O)CC(=O)O[C@H]1C)C[C@H](O)[C@H]2C(=O)O [AmB, Amphotericin B] was ≤ 20 mM

###

assay: Unit channel studies in chicken egg lecithin bilayers with cholesterol; details: 200 μM compound; 30 mol % cholesterol, 27° C.
quantity: Opening probability, channel type V

COC(=O)C(Cc1c[nH]c2ccccc12)NC(=O)[C@@H]1C(O)C[C@@]2(O)C[C@@H](O)C[C@@H](O)[C@H](O)CC[C@@H](O)C[C@@H](O)CC(=O)OC(C)C(C)[C@H](O)C(C)/C=C/C=C/C=C/C=C/C=C/C=C/C=C/[C@H](OC3OC(C)C(O)C(N)C3O)CC1O2 (stereo partly shown) [A-6, N-(L)-tryptophanamide of AmB] : <1%
CC1OC(O[C@H]2/C=C/C=C/C=C/C=C/C=C/C=C/C=C/C(C)[C@@H](O)C(C)C(C)OC(=O)C[C@H](O)C[C@H](O)CC[C@@H](O)[C@H](O)C[C@H](O)C[C@]3(O)CC(O)[C@@H](C(=O)N(C(C)C)C(C)C)C(C2)O3)C(O)C(N)C1O (stereo partly shown) [A-3, N-diisopropylamide of AmB] : N.O.
CC1OC(O[C@H]2/C=C/C=C/C=C/C=C/C=C/C=C/C=C/C(C)[C@@H](O)C(C)C(C)OC(=O)C[C@H](O)C[C@H](O)CC[C@@H](O)[C@H](O)C[C@H](O)C[C@]3(O)CC(O)[C@@H](C(=O)N[C@H](C)c4ccccc4)C(C2)O3)C(O)C(N)C1O (stereo partly drawn) [A-5, N—(R)-α-phenylethylamide of AmB] : <1%
CC1OC(O[C@H]2/C=C/C=C/C=C/C=C/C=C/C=C/C=C/C(C)[C@@H](O)C(C)C(C)OC(=O)C[C@H](O)C[C@H](O)CC[C@@H](O)[C@H](O)C[C@H](O)C[C@]3(O)CC(O)[C@@H](C(=O)NCc4ccccc4)C(C2)O3)C(O)C(N)C1O (stereo partly shown) [A-1, N-benzylamide of AmB] : <1%

###

Test system: human renal cells 293Q (ATCC CLR-1573)
Assay: MTT cytotoxicity on human renal cells 293Q
Conditions: human renal cells 293Q, 24 h
Description: For cytotoxicity studies human kidney cells (ATCC No. CRL-1573) were used. […] The plate was then mixed until the formazan crystals dissolved, and it was finally read in a plate reader (Microplate Limaning System Ultramark, Biorad) at a wavelength of 550 nm. […]
quantity: DT50 CitE50 (µM)
Dear colleague, please return just the value in µM, with no unit written.

As a guide, the following entries are already answered.
CC1OC(O[C@H]2/C=C/C=C/C=C/C=C/C=C/C=C/C=C/C(C)[C@@H](O)C(C)C(C)OC(=O)C[C@H](O)C[C@H](O)CC[C@@H](O)[C@H](O)C[C@H](O)C[C@]3(O)CC(O)[C@@H](C(=O)NCc4ccccc4)C(C2)O3)C(O)C(N)C1O (stereo partly shown) [A-1, N-benzylamide of AmB] : 100
CC(NC(=O)[C@@H]1C(O)C[C@@]2(O)C[C@@H](O)C[C@@H](O)[C@H](O)CC[C@@H](O)C[C@@H](O)CC(=O)OC(C)C(C)[C@H](O)C(C)/C=C/C=C/C=C/C=C/C=C/C=C/C=C/[C@H](OC3OC(C)C(O)C(N)C3O)CC1O2)c1ccccc1 (stereo partly drawn) [A-4, N—(S)-α-phenylethylamide of AmB] : 80
COC(=O)[C@@H](Cc1c[nH]c2ccccc12)NC(=O)[C@@H]1C(O)C[C@@]2(O)C[C@@H](O)C[C@@H](O)[C@H](O)CC[C@@H](O)C[C@@H](O)CC(=O)OC(C)C(C)[C@H](O)C(C)/C=C/C=C/C=C/C=C/C=C/C=C/C=C/[C@H](OC3OC(C)C(O)C(N)C3O)CC1O2 (stereo partly shown) [A-7, N-(D)-tryptophanamide of AmB] : 220

# context switch: different compound, same DT50 CitE50
Reported DT50 CitE50 for CC1OC(O[C@H]2/C=C/C=C/C=C/C=C/C=C/C=C/C=C/C(C)[C@@H](O)C(C)C(C)OC(=O)C[C@H](O)C[C@H](O)CC[C@@H](O)[C@H](O)C[C@H](O)C[C@]3(O)CC(O)[C@@H](C(=O)N(C(C)C)C(C)C)C(C2)O3)C(O)C(N)C1O (stereo partly shown) [A-3, N-diisopropylamide of AmB] was 180

###

assay: Unit channel studies in chicken egg lecithin bilayers with cholesterol; conditions: 200 μM compound; 30 mol % cholesterol, 27° C.
// Opening probability, channel type V lookup, one value per entry

CC1OC(O[C@H]2/C=C/C=C/C=C/C=C/C=C/C=C/C=C/C(C)[C@@H](O)C(C)C(C)OC(=O)C[C@H](O)C[C@H](O)CC[C@@H](O)[C@H](O)C[C@H](O)C[C@]3(O)CC(O)[C@@H](C(=O)NC4CCCCC4)C(C2)O3)C(O)C(N)C1O (stereo partly drawn) [A-2, N-cycloheximide of AmB] : <1%
CC(NC(=O)[C@@H]1C(O)C[C@@]2(O)C[C@@H](O)C[C@@H](O)[C@H](O)CC[C@@H](O)C[C@@H](O)CC(=O)OC(C)C(C)[C@H](O)C(C)/C=C/C=C/C=C/C=C/C=C/C=C/C=C/[C@H](OC3OC(C)C(O)C(N)C3O)CC1O2)c1ccccc1 (stereo partly drawn) [A-4, N—(S)-α-phenylethylamide of AmB] : <1%

# context switch: different compound, same Opening probability, channel type V
Reported Opening probability, channel type V for COC(=O)[C@@H](Cc1c[nH]c2ccccc12)NC(=O)[C@@H]1C(O)C[C@@]2(O)C[C@@H](O)C[C@@H](O)[C@H](O)CC[C@@H](O)C[C@@H](O)CC(=O)OC(C)C(C)[C@H](O)C(C)/C=C/C=C/C=C/C=C/C=C/C=C/C=C/[C@H](OC3OC(C)C(O)C(N)C3O)CC1O2 (stereo partly drawn) [A-7, N-(D)-tryptophanamide of AmB] was <1%

###

// DT50 CitE50 lookup, one value per entry
test system: human renal cells 293Q (ATCC CLR-1573); assay: MTT cytotoxicity on human renal cells 293Q; details: human renal cells 293Q, 24 h
Dear colleague, please return just the value in µM, with no unit written.

CC1OC(O[C@H]2/C=C/C=C/C=C/C=C/C=C/C=C/C=C/C(C)[C@@H](O)C(C)C(C)OC(=O)C[C@H](O)C[C@H](O)CC[C@@H](O)[C@H](O)C[C@H](O)C[C@]3(O)CC(O)[C@@H](C(=O)N[C@H](C)c4ccccc4)C(C2)O3)C(O)C(N)C1O (stereo partly drawn) [A-5, N—(R)-α-phenylethylamide of AmB] : 100

Reported DT50 CitE50 for CC1OC(O[C@H]2/C=C/C=C/C=C/C=C/C=C/C=C/C=C/C(C)[C@@H](O)C(C)C(C)OC(=O)C[C@H](O)C[C@H](O)CC[C@@H](O)[C@H](O)C[C@H](O)C[C@]3(O)CC(O)[C@@H](C(=O)NC4CCCCC4)C(C2)O3)C(O)C(N)C1O (stereo partly drawn) [A-2, N-cycloheximide of AmB] was 120

Reported DT50 CitE50 for COC(=O)C(Cc1c[nH]c2ccccc12)NC(=O)[C@@H]1C(O)C[C@@]2(O)C[C@@H](O)C[C@@H](O)[C@H](O)CC[C@@H](O)C[C@@H](O)CC(=O)OC(C)C(C)[C@H](O)C(C)/C=C/C=C/C=C/C=C/C=C/C=C/C=C/[C@H](OC3OC(C)C(O)C(N)C3O)CC1O2 (stereo partly drawn) [A-6, N-(L)-tryptophanamide of AmB] was 120

###

assay: Unit channel studies in chicken egg lecithin bilayers with cholesterol; conditions: 200 μM compound; 30 mol % cholesterol, 27° C.
quantity: Opening probability, channel type IV

COC(=O)[C@@H](Cc1c[nH]c2ccccc12)NC(=O)[C@@H]1C(O)C[C@@]2(O)C[C@@H](O)C[C@@H](O)[C@H](O)CC[C@@H](O)C[C@@H](O)CC(=O)OC(C)C(C)[C@H](O)C(C)/C=C/C=C/C=C/C=C/C=C/C=C/C=C/[C@H](OC3OC(C)C(O)C(N)C3O)CC1O2 (stereo partly drawn) [A-7, N-(D)-tryptophanamide of AmB] : <1%
CC1OC(O[C@H]2/C=C/C=C/C=C/C=C/C=C/C=C/C=C/C(C)[C@@H](O)C(C)C(C)OC(=O)C[C@H](O)C[C@H](O)CC[C@@H](O)[C@H](O)C[C@H](O)C[C@]3(O)CC(O)[C@@H](C(=O)N[C@H](C)c4ccccc4)C(C2)O3)C(O)C(N)C1O (stereo partly drawn) [A-5, N—(R)-α-phenylethylamide of AmB] : <1%
CC1OC(O[C@H]2/C=C/C=C/C=C/C=C/C=C/C=C/C=C/C(C)[C@@H](O)C(C)C(C)OC(=O)C[C@H](O)C[C@H](O)CC[C@@H](O)[C@H](O)C[C@H](O)C[C@]3(O)CC(O)[C@@H](C(=O)N(C(C)C)C(C)C)C(C2)O3)C(O)C(N)C1O (stereo partly drawn) [A-3, N-diisopropylamide of AmB] : N.O.
